tested on: SK-MEL-5 melanoma; experiment: NCI-60 one-dose screen, 48 h; conditions: 10 µM unless noted
The panel holds about 83,000 compounds, 20% with a hit somewhere; the sample as a whole holds those more often. Activity calls are given as the source filed them. The calls were made as follows: active = growth percent below 10; inactive = the rest.
Answer with one of the outcomes Yes = active, No = inactive

# sample_smiles, class
measured = [
    ("c1ccc(-c2nc(Nc3ccc(-c4nc5ccccc5[nH]4)cc3)nc(N3CCOCC3)n2)cc1", "Yes"),
    ("O=C1CCCC=CC[C@H]2C=C(Cl)C(=O)C2=CC[C@H](CCCCC(F)(F)F)OC(=O)CCCC=CC[C@H]2C=C(Cl)C(=O)C2=CC[C@H](CCCCC(F)(F)F)OC(=O)CCCC=CC[C@H]2C=C(Cl)C(=O)C2=CC[C@H](CCCCC(F)(F)F)O1", "No"),
]

Now, please, on to the next compound.
Q. Answer briefly: the call reported for Cc1cccc2c1NC(=O)[C@@]21[C@H](C(=O)c2ccccc2)[C@]2(C(=O)Nc3ccccc32)[C@H]2CCCN21 in this assay.
A. No

Taken from PubChem BioAssay (NCI).
